Give measured AUC(0-inf) for each item. Keep answers brief.
Experiment: Plasma pharmacokinetics of cocktail index drugs and their metabolites, five-phase crossover trial;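 also: parameters derived from plasma drug levels quantified by LC–MS with internal standards after acetonitrile protein precipitation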
Settings: human, plasma, oral, AUC0-∞, geometric mean (geometric CV), phase II: Geneva cocktail
Give your result as the value with the unit written after it.

Challenge: Look at this compound and give its reported AUC(0-inf). Cn1c(=O)[nH]c2ncn(C)c2c1=O
Response given: 7220 ng·h/mL

Challenge: Look at this compound and give its reported AUC(0-inf). COc1ccc2nc(S(=O)(=O)Cc3ncc(C)c(OC)c3C)[nH]c2c1
Response given: 111 ng·h/mL

Challenge: Look at this compound and give its reported AUC(0-inf). Cn1c(=O)c2c(ncn2C)n(C)c1=O
Response given: 7830 ng·h/mL
